Assay: chemical genetic growth profiling, strain panel (AID 1159580);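 note: tested at 20 µM; growth read once vehicle control cultures reached saturation at 30 °C; 1 = growth at the plate median or of vehicle wells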
Conditions: S. cerevisiae deletion strains, growth OD, locus YLR027C, strain aat2, stronger effect = lower value
About 2,000 (36%) of roughly 5,500 compounds were called active. Another 18% or so got no clear call; they are omitted. This is one part of the list.
quantity: normalized growth
Reply briefly: the number, and no unit.

According to the records, this compound "O=C(Oc1ccccc1C(=O)O)c1ccccc1O" displays normalized growth of 0.984

* * *

Assay: chemical genetic growth profiling, strain panel (AID 1159580);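 note: tested at 20 µM; growth read once vehicle control cultures reached saturation at 30 °C; 1 = growth at the plate median or of vehicle wells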
Settings: S. cerevisiae deletion strains, growth OD, locus YNL183C, strain NPR1
Hit rate of the full screen: of about 5,500 compounds, about 2,000 (36%) were called active. Inconclusive results (about 18%) are left out. No stated cut-off is given here; in the data, active means normalized growth mostly below about 0.91 (no sharp cut-off); inconclusive means no clear call, values can overlap the other calls; inactive means mostly above about 0.92. This is one part of the list.
One label from this list, please: active, inactive

// query Please state the recorded outcome for this molecule: C[C@@H]1CCC2[C@](C)(CO)[C@@H](O)CC[C@]2(C)[C@@]12CC[C@@](CO)(CCO)O2 (stereo partly drawn)
// result inactive

// query Tell me the recorded outcome of this test for "CN1/C(=C/C=C/c2ccc3ccccc3[n+]2C)C=Cc2ccccc21" .
// result active

// query GET /call?item= C/C=C/CC(C)C(O)C1C(=O)NC(CC)C(=O)N(C)CC(=O)N(C)C(CC(C)C)C(=O)NC(C(C)C)C(=O)N(C)C(CC(C)C)C(=O)NC(C)C(=O)NC(C)C(=O)N(C)C(CC(C)C)C(=O)N(C)C(CC(C)C)C(=O)N(C)C(C(C)C)C(=O)N1C (stereo not drawn) returns the recorded outcome of this test.
// result inactive
